Assign max response to each entry below.
- TEST_SUMMARY: qHTS Assay for Lipid Storage Modulators (AID 1519)
- COND: Drosophila S3 cells, BODIPY lipid droplet/cell ratio, laser cytometry; measured here: cell count channel max response; cells loaded with oleic acid
Inconclusive results are not listed.
Numbers only, in %.

Use these answered entries as a reference point.
1. N[C@@H]1C(O)OC(CO)C(O)C1O (stereo partly drawn)
7.77
2. CC1(C)O[C@@H]2C[C@H]3[C@H]4C[C@H](F)C5=CC(=O)CC[C@]5(C)[C@@H]4[C@H](O)C[C@]3(C)[C@]2(C(=O)CO)O1
-9.46
3. COC(=O)[C@H]1C(OC)[C@@H](OC(=O)c2cc(OC)c(OC)c(OC)c2)C[C@@H]2CN3CCc4c([nH]c5cc(OC)ccc45)[C@H]3C[C@H]21 (stereo partly drawn)
4.56
4. CC(=O)OCC(=O)[C@@]1(O)CC[C@@H]2[C@H]3CCC4=CC(=O)C=C[C@]4(C)[C@]3(F)[C@@H](O)C[C@@]21C
15.5

Consider the following items and state reported max response for each.
1. Oc1cc(O)c2c(c1)OC(c1cc(O)c(O)c(O)c1)C(O)C2 (stereo not drawn)
2. COc1ccc(C2OC3C(CO)OC(n4cnc5c(=O)[nH]c(N)nc54)C3O2)cc1 (stereo not drawn)
3. CCN1CCN(C(=O)N[C@H](C(=O)N[C@@H]2C(=O)N3[C@@H]2SC(C)(C)[C@@H]3C(=O)O)c2ccccc2)C(=O)C1=O
4. Nc1nc(=S)c2ncn([C@H]3O[C@@H](CO)[C@@H](O)[C@@H]3O)c2[nH]1

1. 12.7
2. 11.1
3. -7.94
4. 2.2

----------
- System: PAD
- TEST_SUMMARY: qHTS profiling for inhibitors of Plasmodium falciparum proliferation (AID 504749);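 also: 0% = DMSO vehicle and full inhibition = artemisinin control; nearly all actives have a fitted effect of over 60% in size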
- COND: P. falciparum in erythrocytes, SYBR Green DNA, 72 h; series mostly up to 12.8 µM
Results filed as inconclusive are left out. Calls of active or inactive are those of the source. The call rests on the fitted dose curve; in most records, active means well fitted inhibition curve with a large enough effect; inconclusive means small, poorly fitted or top-dose-only effect; inactive means flat fitted curve, though single readings scatter. Bridge positions count the residues as written; N and C are the ends. Square brackets hold non-standard residues; d marks the D form. Peptide text beside a SMILES is read from it. * marks the point of attachment. Ileψ(thiazoline)Cys = CC[C@H](C)[C@H](N)C1=N[C@H](C(=O)*)CS1; d(aIle) = CC[C@H](C)[C@@H](N)C(=O)O; dOrn = NCCC[C@@H](N)C(=O)O
MEASURED_ATTRIBUTE: outcome

1) CC[C@H](C)[C@H](N)C1=N[C@H](C(=O)N[C@@H](CC(C)C)C(=O)N[C@@H](CCC(=O)O)C(=O)N[C@@H](C(=O)N[C@H]2CCCCNC(=O)[C@@H](CC(N)=O)NC(=O)[C@@H](CC(=O)O)NC(=O)[C@@H](Cc3cnc[nH]3)NC(=O)[C@@H](Cc3ccccc3)NC(=O)[C@@H]([C@@H](C)CC)NC(=O)[C@@H](CCCN)NC2=O)[C@@H](C)CC)CS1 ({Ileψ(thiazoline)Cys}-LE[d(aIle)]K[dOrn][d(aIle)][dF][dH][dD][dN]; lactam 4-C)
inactive
2) COc1ccc([C@@H]2CC(=O)c3c(O)cc(O[C@H]4O[C@@H](CO[C@H]5O[C@@H](C)[C@@H](O)[C@@H](O)[C@@H]5O)[C@@H](O)[C@@H](O)[C@@H]4O)cc3O2)cc1O
inactive
3) C[C@]12CCC(=O)C=C1CCC1C2C(=O)C[C@]2(C)C1CC[C@]2(O)C(=O)CO (stereo partly drawn)
inactive

Cited source: PubChem BioAssay (NCATS)
